Tested on: M. smegmatis ΔrrnB 1491C (16S rRNA position 1491 C, eukaryotic mitochondrial ribosome)
Test: MIC, recombinant M. smegmatis with mutant ribosomes 1491C
Format: cell-based, Mycobacterium smegmatis
Conditions: M. smegmatis ΔrrnB 1491C mutant ribosomes; 72 h at 37° C.
Source text: The strain used for introduction/selection of mutational alterations was a genetically modified derivative of Mycobacterium smegmatis carrying a single functional chromosomal rRNA operon (Sander et al. Mol. Microbiol. 1996, 22: 841-848). This strain, termed M. smegmatis rrn^−, allowed for the selection of mutational rRNA gene alterations using a plasmid carrying the rRNA gene with the respective mutational alteration.) […]
experimental-readout: minimal inhibitory concentrations ΔrrnB 1491C

{"compound": "N#Cc1ccc([C@@H]2OC[C@H]3O[C@H](O[C@H]4[C@H](O[C@@H]5O[C@H](CO)[C@@H](O[C@H]6O[C@@H](CN)[C@@H](O)[C@H](O)[C@H]6N)[C@H]5O)[C@@H](O)[C@H](N)C[C@@H]4N)[C@H](N)[C@@H](O)[C@@H]3O2)cc1 [Compound 5.10, 4,6′-O-p-Cyanobenzylideneparomomycin]", "measurement-target": "M. smegmatis ΔrrnB 1491C (16S rRNA position 1491 C, eukaryotic mitochondrial ribosome)", "measured-value": ">512 µg/mL"}
{"compound": "NC[C@@H]1O[C@H](O[C@H]2[C@@H](O)[C@H](O[C@@H]3[C@@H](O)[C@H](N)C[C@H](N)[C@H]3O[C@H]3O[C@@H]4CO[C@@H](c5ccc([N+](=O)[O-])cc5)O[C@H]4[C@H](O)[C@H]3N)O[C@@H]2CO)[C@H](N)[C@@H](O)[C@@H]1O [Compound 5.6, 4′,6′-O-p-Nitrobenzylideneparomomycin]", "measurement-target": "M. smegmatis ΔrrnB 1491C (16S rRNA position 1491 C, eukaryotic mitochondrial ribosome)", "measured-value": ">512 µg/mL"}
